Tested on: 519858-162-T-J1-PDC complex spheroid growth, % test/control
test.protocol: Anticancer human tumor 519858-162-T-J1-PDC patient-derived colon adenocarcinoma cell line growth inhibition [Asc]
run.conditions: second compound 0.03 µM; first compound 0.01 µM; stronger effect = lower value
Measured viability, T/C, listed per entry for reference.
Supply the numeric figure in %, leaving out any unit text.

### Prompt Lab note: need viability, T/C for COc1c(OCCCN2CCOCC2)ccc2c3n(c(=NC(=O)c4cnc(N)nc4)nc12)CCN3 + CCN1C(C(=O)NC23CCC(C(=O)O)(CC2)CC3)C(c2cccc(Cl)c2F)C2(C(=O)Nc3cc(Cl)ccc32)C12CCCCC2 on 519858-162-T-J1-PDC complex spheroid growth, % test/control, anyone have it?
### Response 93.1

---
### Prompt Lab note: need viability, T/C for O=C(c1ccc(F)c(F)c1Nc1ccc(I)cc1F)N1CC(O)([C@@H]2CCCCN2)C1 + CCN1C(C(=O)NC23CCC(C(=O)O)(CC2)CC3)C(c2cccc(Cl)c2F)C2(C(=O)Nc3cc(Cl)ccc32)C12CCCCC2 on 519858-162-T-J1-PDC complex spheroid growth, % test/control, anyone have it?
### Response 91.1

### Prompt Lab note: need viability, T/C for CNC(C)C(=O)NC1CN(S(=O)(=O)c2cccc(S(=O)(=O)N3CCC4CCC(C(=O)NC(c5ccccc5)c5ccccc5)N4C(=O)C(NC(=O)C(C)NC)C3)c2)CCC2CCC(C(=O)NC(c3ccccc3)c3ccccc3)N2C1=O (stereo unspecified) + CCN1C(C(=O)NC23CCC(C(=O)O)(CC2)CC3)C(c2cccc(Cl)c2F)C2(C(=O)Nc3cc(Cl)ccc32)C12CCCCC2 on 519858-162-T-J1-PDC complex spheroid growth, % test/control, anyone have it?
### Response 89.9

### Prompt Lab note: need viability, T/C for Cn1ncnc1[C@H]1c2n[nH]c(=O)c3cc(F)cc(c23)N[C@@H]1c1ccc(F)cc1 + CCN1C(C(=O)NC23CCC(C(=O)O)(CC2)CC3)C(c2cccc(Cl)c2F)C2(C(=O)Nc3cc(Cl)ccc32)C12CCCCC2 on 519858-162-T-J1-PDC complex spheroid growth, % test/control, anyone have it?
### Response 91.5

### Prompt Lab note: need viability, T/C for CCN1CCN(Cc2ccc(Nc3ncc(F)c(-c4cc(F)c5nc(C)n(C(C)C)c5c4)n3)nc2)CC1 + CCN1C(C(=O)NC23CCC(C(=O)O)(CC2)CC3)C(c2cccc(Cl)c2F)C2(C(=O)Nc3cc(Cl)ccc32)C12CCCCC2 on 519858-162-T-J1-PDC complex spheroid growth, % test/control, anyone have it?
### Response 84.4

### Prompt Lab note: need viability, T/C for NC1CCC(NC2CC2c2ccccc2)CC1 (stereo unspecified) + CCN1C(C(=O)NC23CCC(C(=O)O)(CC2)CC3)C(c2cccc(Cl)c2F)C2(C(=O)Nc3cc(Cl)ccc32)C12CCCCC2 on 519858-162-T-J1-PDC complex spheroid growth, % test/control, anyone have it?
### Response 84.1

====

Test system: 519858-162-T-J1-PDC complex spheroid growth, % test/control
test.protocol: Anticancer human tumor 519858-162-T-J1-PDC cell line growth inhibition [Asc];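 also: seven day drug exposure begun three days after spheroid seeding; 100% = DMSO vehicle wells and lower values mean less viable spheroid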
run.conditions: second compound 0.01 µM; first compound 0.0316 µM; stronger effect = lower value
Measured viability, T/C, listed per entry for reference.

### Prompt Entry O=C(c1ccc(F)c(F)c1Nc1ccc(I)cc1F)N1CC(O)([C@@H]2CCCCN2)C1 + CNC(C)C(=O)NC1CN(S(=O)(=O)c2cccc(S(=O)(=O)N3CCC4CCC(C(=O)NC(c5ccccc5)c5ccccc5)N4C(=O)C(NC(=O)C(C)NC)C3)c2)CCC2CCC(C(=O)NC(c3ccccc3)c3ccccc3)N2C1=O has what viability, T/C?
### Response 74.7%

### Prompt Entry CCN1CCN(Cc2ccc(Nc3ncc(F)c(-c4cc(F)c5nc(C)n(C(C)C)c5c4)n3)nc2)CC1 + CNC(C)C(=O)NC1CN(S(=O)(=O)c2cccc(S(=O)(=O)N3CCC4CCC(C(=O)NC(c5ccccc5)c5ccccc5)N4C(=O)C(NC(=O)C(C)NC)C3)c2)CCC2CCC(C(=O)NC(c3ccccc3)c3ccccc3)N2C1=O has what viability, T/C?
### Response 95.1%

Alright, here's another compound for you.
### Prompt Entry C=CC(=O)N1CCN(c2nc(=O)n(-c3c(C)ccnc3C(C)C)c3nc(-c4c(O)cccc4F)c(F)cc23)C(C)C1 (stereo not drawn) + CNC(C)C(=O)NC1CN(S(=O)(=O)c2cccc(S(=O)(=O)N3CCC4CCC(C(=O)NC(c5ccccc5)c5ccccc5)N4C(=O)C(NC(=O)C(C)NC)C3)c2)CCC2CCC(C(=O)NC(c3ccccc3)c3ccccc3)N2C1=O has what viability, T/C?
### Response 113%
